Every entry's value here was drawn from patent US11384078B2.

# System: L. donovani HU3 strain in mouse peritoneal macrophages
# measurementProtocol: Assay for inhibition of parasitemia of Leishmania donovani in mouse macrophages (SYBR Green nuclei count, high-content imaging)
# Assay type: cell-based
# testParameters: Leishmania donovani, Peritoneal macrophage, L. donovani in mouse peritoneal macrophages; read-out: L. donovani in Mouse Macrophages EC50
EC50 by entry:
Remember to follow the number with its unit.

Req: I am curious: what EC50 value has been reported for O=C(Nc1ccc(F)c(-n2cc3cc(N4CC(F)C4)cnc3n2)c1)N1CC[C@@H](F)C1 [Compound 302] ?
Resp: 15 nM

Req: // next record O=C(Nc1ccc(F)c(-n2cc3cc(N4CCC4)cnc3n2)c1)c1ccco1 [Compound 151]
Resp: 13 nM

Req: // next record O=C(Nc1ccc(F)c(-n2cc3cc(-c4ccccn4)cnc3n2)c1)[C@@H]1C[C@@H]1F (racemic) [Compound 349]
Resp: 102 nM

Req: // next record CCCC(C)c1cnc2nn(-c3cc(NC(=O)N4CC(F)(F)C4)ccc3F)cc2c1 (stereo not shown) [Compound 34]
Resp: 270 nM

###

pEC50 by entry:
# Test system: Trypanosoma cruzi amastigotes cultured in 3T3 fibroblast cells
# measurementProtocol: Assay for growth inhibition of kinetoplastid parasite Trypanosoma cruzi (beta-galactosidase Tulahuen strain, CPRG readout)
# Assay type: cell-based
# testParameters: Trypanosoma cruzi, Fibroblast, T. cruzi amastigotes in 3T3 fibroblast cells; read-out: Buckner infectious T. cruzi EC50
Keep in mind that pEC50 stands for -log10 of concentration in molar terms.

Field: example entries. Status: answers known.
INSERT INTO results (smilesnotation, observedmeasurement) VALUES
  ('CN(C)c1cnc2nn(-c3cc(NC(=O)N4CC(F)C4)ccc3F)cc2c1', 8.66),
  ('CC(C)CCc1cnc2nn(-c3cc(NC(=O)N4CC(F)C4)ccc3F)cc2c1', 7.42);

Req: Record Cc1cnc2nn(-c3cc(NC(=O)N4CC(F)C4)ccc3F)cc2c1 : what is its pEC50 with Trypanosoma cruzi amastigotes cultured in 3T3 fibroblast cells?
Resp: 7.89

Req: // next record CC(C)Nc1cnc2nn(-c3cc(NC(=O)N4CC(F)C4)ccc3F)cc2c1
Resp: 7.82

Req: // next record CO[C@@H]1CCN(C(=O)Nc2ccc(F)c(-n3cc4cc(C(C)C)cnc4n3)c2)C1
Resp: 7.30

###

# System: Trypanosoma cruzi amastigotes cultured in 3T3 fibroblast cells
# measurementProtocol: Assay for growth inhibition of kinetoplastid parasite Trypanosoma cruzi (beta-galactosidase Tulahuen strain, CPRG readout)
# Assay type: cell-based
# testParameters: Trypanosoma cruzi, Fibroblast, T. cruzi amastigotes in 3T3 fibroblast cells; read-out: Buckner infectious T. cruzi EC50
log10 EC50 by entry:
Parameter value (number): base-10 log of EC50 in nM.

INSERT INTO measurements (compound, measuredtarget, observedmeasurement) VALUES
  ('COC(=O)C12CC(C(=O)Nc3ccc(F)c(-n4cc5cc(C(C)C)cnc5n4)c3)(C1)C2 [Compound 120]', 'Trypanosoma cruzi amastigotes cultured in 3T3 fibroblast cells', 3.63),
  ('O=C(Nc1ccc(F)c(-n2cc3cc(CC4CCC4)cnc3n2)c1)N1CC(F)(F)C1 [Compound 37]', 'Trypanosoma cruzi amastigotes cultured in 3T3 fibroblast cells', 1.41),
  ('O=C(Nc1ccc(F)c(-n2cc3cc(-c4ncccc4F)cnc3n2)c1)N1CC(F)(F)C1 [Compound 309]', 'Trypanosoma cruzi amastigotes cultured in 3T3 fibroblast cells', 0.00),
  ('O=C(Nc1ccnc(-n2cc3cc(N4CC(F)(F)C4)cnc3n2)c1)N1CCC1 [Compound 280]', 'Trypanosoma cruzi amastigotes cultured in 3T3 fibroblast cells', 1.68),
  ('CC(C)c1cnc2nn(-c3cc(NC(=O)N4CC[C@@H](F)C4)ccc3F)cc2c1 [Compound 195]', 'Trypanosoma cruzi amastigotes cultured in 3T3 fibroblast cells', 0.60);

Next compound, log10 EC50 to be filled in.
Req: I am curious: what log10 EC50 value has been reported for CCC(C)c1cnc2nn(-c3cc(NC(=O)c4oc(C)nc4C)ccc3F)cc2c1 (stereo not drawn) [Compound 105] ?
Resp: 2.63
